Listed molecules paired with reported viability, T/C
# Tested on: DMS 114 tumor spheroids, viability % test/control
# test name: Anticancer human tumor DMS 114 cell line growth inhibition
# assay context: second compound 1 µM; first compound 0.0316 µM; stronger effect = lower value; spheroids with HUVEC and MSC
Please give a number only; it is taken to be in %.

Example entries and their recorded answers appear below.
molecule | measured attribute | endpoint value
CC1COCCN1c1cc(-c2ccnn2C)c2ccnc(-c3ccn[nH]3)c2n1 (stereo unspecified) + Cn1nnc2c(C(N)=O)ncn2c1=O | viability, T/C | 56.6
Cc1cc(C)c(CNC(=O)c2cc(-c3ccc(CN4CCOCC4)cc3)cc3c2cnn3C2CCCC2)c(=O)[nH]1 + Cn1nnc2c(C(N)=O)ncn2c1=O | viability, T/C | 100
CC(C)n1c(=O)n(C)c2cnc3cc(F)c(-c4ccc(OCCCN5CCCCC5)nc4)cc3c21 + Cn1nnc2c(C(N)=O)ncn2c1=O | viability, T/C | 95.4
COc1ccc([C@@H](O)c2cc(-c3ncnc4cc(N5CCOCC5)ccc34)c(F)cc2Cl)nn1 + Cn1nnc2c(C(N)=O)ncn2c1=O | viability, T/C | 101
COc1cc(C)[nH]c(=O)c1CN1CCc2c(Cl)cc(C(OC)C3COC3)c(Cl)c2C1=O (stereo unspecified) + Cn1nnc2c(C(N)=O)ncn2c1=O | viability, T/C | 103

Query: Requested read-out: viability, T/C. Entry: [2H]c1nc(C)nc([2H])c1-c1cc(NC[C@@H](C)c2cccc3c(C(=O)NC)ccnc23)ncn1 + Cn1nnc2c(C(N)=O)ncn2c1=O
Response: 94.5

###

# Test system: DMS 114 tumor spheroids, viability % test/control
# test name: Anticancer human tumor DMS 114 cell line growth inhibition
# assay context: second compound 100 µM; first compound 0.3 µM; stronger effect = lower value; spheroids with HUVEC and MSC
measured attribute: viability, T/C (%)
Quick note: give the figure in %, leave out the unit.

Solved entries (count: 3):
compound | viability, T/C / %
Cc1sc2c(c1C)C(c1ccc(Cl)cc1)=NC(CC(=O)Nc1ccc(O)cc1)c1nnc(C)n1-2 (centres undefined) + Cn1nnc2c(C(N)=O)ncn2c1=O | 18.9
CNCc1ccc(-c2cc(-c3nc(-c4ccc(S(=O)(=O)C(C)C)cc4)cnc3N)on2)cc1 + Cn1nnc2c(C(N)=O)ncn2c1=O | 16.1
Cn1ncnc1[C@H]1c2n[nH]c(=O)c3cc(F)cc(c23)N[C@@H]1c1ccc(F)cc1 + Cn1nnc2c(C(N)=O)ncn2c1=O | 19.4

Query: Give its viability, T/C value. Item: O=C(c1cc(Cc2n[nH]c(=O)c3ccccc23)ccc1F)N1CCN(C(=O)C2CC2)CC1 + Cn1nnc2c(C(N)=O)ncn2c1=O
Response: 48.7

###

# Tested on: DMS 114 tumor spheroids, viability % test/control
# test name: Anticancer human tumor DMS 114 cell line growth inhibition;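 also: luminescence used as a proxy for viable cells; spheroids exposed to compounds for 7 days before read-out; 100% = DMSO vehicle control viability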
# assay context: second compound 0.00949 µM; first compound 1 µM; stronger effect = lower value; spheroids with HUVEC and MSC
Rule for this label: YES means viability, T/C is less than 60%; NO means viability, T/C is at least 60%.

Reference set, count: 5
compound | category
COc1cc(C)[nH]c(=O)c1CN1CCc2c(Cl)cc(C(OC)C3COC3)c(Cl)c2C1=O (stereo unspecified) + CC[C@@]1(O)C(=O)OCc2c1cc1n(c2=O)Cc2cc3c(CN(C)C)c(O)ccc3nc2-1 | YES
CC1COCCN1c1cc(-c2ccnn2C)c2ccnc(-c3ccn[nH]3)c2n1 (stereo unspecified) + CC[C@@]1(O)C(=O)OCc2c1cc1n(c2=O)Cc2cc3c(CN(C)C)c(O)ccc3nc2-1 | YES
CC(C)n1c(=O)n(C)c2cnc3cc(F)c(-c4ccc(OCCCN5CCCCC5)nc4)cc3c21 + CC[C@@]1(O)C(=O)OCc2c1cc1n(c2=O)Cc2cc3c(CN(C)C)c(O)ccc3nc2-1 | YES
Cc1cc(C)c(CNC(=O)c2cc(-c3ccc(CN4CCOCC4)cc3)cc3c2cnn3C2CCCC2)c(=O)[nH]1 + CC[C@@]1(O)C(=O)OCc2c1cc1n(c2=O)Cc2cc3c(CN(C)C)c(O)ccc3nc2-1 | NO
[2H]c1nc(C)nc([2H])c1-c1cc(NC[C@@H](C)c2cccc3c(C(=O)NC)ccnc23)ncn1 + CC[C@@]1(O)C(=O)OCc2c1cc1n(c2=O)Cc2cc3c(CN(C)C)c(O)ccc3nc2-1 | NO

Okay, now this compound:
Query: Identify whether the compound COc1ccc([C@@H](O)c2cc(-c3ncnc4cc(N5CCOCC5)ccc34)c(F)cc2Cl)nn1 + CC[C@@]1(O)C(=O)OCc2c1cc1n(c2=O)Cc2cc3c(CN(C)C)c(O)ccc3nc2-1 records viability, T/C below 60%.
Response: YES

###

Listed compounds paired with reported viability, T/C
# System: DMS 114 tumor spheroids, viability % test/control
# test name: Anticancer human tumor DMS 114 cell line growth inhibition;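 also: luminescence used as a proxy for viable cells; spheroids exposed to compounds for 7 days before read-out; 100% = DMSO vehicle control viability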
# assay context: second compound 0.00949 µM; first compound 0.3 µM; stronger effect = lower value; spheroids with HUVEC and MSC
# Method: Multicellular complex tumor spheroid response to DNA repair inhibitors in combination with DNA-damaging drugs This study explores the anticancer activities of DNA-damaging drugs and inhibitors of DNA damage repair, both as single agents and in combinations. […] Twenty-six patient-derived or established malignant cell lines were evaluated representing sarcoma, melanoma, small cell lung cancer (SCLC), non-small cell lung cancer (NSCLC), as well as bladder, ovarian and pancreatic cancers. […]
Give the quantity in %, number only.

Before answering, review these 3 worked examples.
compound | quantity unit | viability, T/C
CNCc1ccc(-c2cc(-c3nc(-c4ccc(S(=O)(=O)C(C)C)cc4)cnc3N)on2)cc1 + CC[C@@]1(O)C(=O)OCc2c1cc1n(c2=O)Cc2cc3c(CN(C)C)c(O)ccc3nc2-1 | % | 14.3
Cc1sc2c(c1C)C(c1ccc(Cl)cc1)=NC(CC(=O)Nc1ccc(O)cc1)c1nnc(C)n1-2 (centres undefined) + CC[C@@]1(O)C(=O)OCc2c1cc1n(c2=O)Cc2cc3c(CN(C)C)c(O)ccc3nc2-1 | % | 12.1
Cn1ncnc1[C@H]1c2n[nH]c(=O)c3cc(F)cc(c23)N[C@@H]1c1ccc(F)cc1 + CC[C@@]1(O)C(=O)OCc2c1cc1n(c2=O)Cc2cc3c(CN(C)C)c(O)ccc3nc2-1 | % | 25.3

From here, focus on the item given below.
Query: Given the compound O=C(c1cc(Cc2n[nH]c(=O)c3ccccc23)ccc1F)N1CCN(C(=O)C2CC2)CC1 + CC[C@@]1(O)C(=O)OCc2c1cc1n(c2=O)Cc2cc3c(CN(C)C)c(O)ccc3nc2-1 , what is its reported viability, T/C?
Response: 64.6

###

# System: DMS 114 tumor spheroids, viability % test/control
# test name: Anticancer human tumor DMS 114 cell line growth inhibition; active means viability on the fitted dose curve at most 10% of control; inactive means the rest;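 also: luminescence used as a proxy for viable cells; spheroids exposed to compounds for 7 days before read-out; 100% = DMSO vehicle control viability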
# assay context: second compound 31.6 µM; first compound 3 µM; spheroids with HUVEC and MSC
Your response should consist of one outcome taken from active, inactive

// known answers, use as guide
molecule | category
Cn1ncnc1[C@H]1c2n[nH]c(=O)c3cc(F)cc(c23)N[C@@H]1c1ccc(F)cc1 + Cn1nnc2c(C(N)=O)ncn2c1=O | inactive
O=C(c1cc(Cc2n[nH]c(=O)c3ccccc23)ccc1F)N1CCN(C(=O)C2CC2)CC1 + Cn1nnc2c(C(N)=O)ncn2c1=O | inactive

Query: Hi, do you know how Cc1sc2c(c1C)C(c1ccc(Cl)cc1)=NC(CC(=O)Nc1ccc(O)cc1)c1nnc(C)n1-2 (centres undefined) + Cn1nnc2c(C(N)=O)ncn2c1=O came out in this test?
Response: active

Query: # fetch the recorded call for CNCc1ccc(-c2cc(-c3nc(-c4ccc(S(=O)(=O)C(C)C)cc4)cnc3N)on2)cc1 + Cn1nnc2c(C(N)=O)ncn2c1=O here
Response: active

###

# Tested on: DMS 114 tumor spheroids, viability % test/control
# test name: Anticancer human tumor DMS 114 cell line growth inhibition;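 also: luminescence used as a proxy for viable cells; spheroids exposed to compounds for 7 days before read-out; 100% = DMSO vehicle control viability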
# assay context: second compound 0.00949 µM; first compound 3.16 µM; stronger effect = lower value; spheroids with HUVEC and MSC
Some compounds, each annotated with its measured viability, T/C.
Express it in %; write the number only.

compound | viability, T/C / %
Cc1cc(C)c(CNC(=O)c2cc(-c3ccc(CN4CCOCC4)cc3)cc3c2cnn3C2CCCC2)c(=O)[nH]1 + CC[C@@]1(O)C(=O)OCc2c1cc1n(c2=O)Cc2cc3c(CN(C)C)c(O)ccc3nc2-1 | 84.9
CC(C)n1c(=O)n(C)c2cnc3cc(F)c(-c4ccc(OCCCN5CCCCC5)nc4)cc3c21 + CC[C@@]1(O)C(=O)OCc2c1cc1n(c2=O)Cc2cc3c(CN(C)C)c(O)ccc3nc2-1 | 25

Now look at this entry.
Query: Tell me reported viability, T/C for [2H]c1nc(C)nc([2H])c1-c1cc(NC[C@@H](C)c2cccc3c(C(=O)NC)ccnc23)ncn1 + CC[C@@]1(O)C(=O)OCc2c1cc1n(c2=O)Cc2cc3c(CN(C)C)c(O)ccc3nc2-1 , tested with DMS 114 tumor spheroids, viability % test/control.
Response: 68.3
